// reported pre-steady-state target cleavage rate for each item listed
- System: MILI (PIWIL2) piRISC loaded with L1MC piRNA (26 nt);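 also: 1 nM active piRISC with 0.1 nM target library at 33 °C single turnover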
- METHOD DESCRIPTION: pre-steady-state target cleavage rate (min^-1); guide: L1MC piRNA 5'p-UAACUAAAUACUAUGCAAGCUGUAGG; higher = faster piRNA-guided slicing of the target
- PARTICULARS: auxiliary factor: 500 nM mouse GTSF1
Format: numeric value only, no unit, no commentary.

Solved cases (5 shown):
UCCUGGAUGAGCUUGCAUAGUAUUUAUGUUA : 0.102
UCCUGGAUGAGGUUGCAAAGUAUUUAGUUA : 0.0323
UCCUGGAUGUGCAUGCAUAGUAUUUACUUA : 0.065
UCCUCCUACAGCUUGCAAUCUAUUUAGUUA : 0.0266
UCCUGGAUGUCGAAUCAUAGUAUUUAGUUA : 0.00554

## Task Give pre-steady-state target cleavage rate for UCCUGGAUCAGCUUGCAUAGUAUUAACAAA
## Result 0.0885

## Task Give the value of pre-steady-state target cleavage rate reported for the following: UCCUGGAUGUGCUUGCAUAGUUUUUAGUAA
## Result 0.0109

## Task Please look at this sequence and report its pre-steady-state target cleavage rate: UCCUGGUACAGCAUGCAAAGUAUUUAGUUA
## Result 0.119

## Task Supply pre-steady-state target cleavage rate value. Item: UCCUCCUACAGCUUGCAUAGUAUUUAGUGUA
## Result 0.158

## Task Identify the reported pre-steady-state target cleavage rate for the following entry. UCCUGGAUGACGAUGCAUAGUAUUUAGUUA
## Result 0.0949

## Task Answer with reported pre-steady-state target cleavage rate of UCCUGGAUGUGCAUGCUUAGUAUUUAGUUA
## Result 0.0349

## Task Read off the recorded pre-steady-state target cleavage rate for UCCUCCUACAGCUUCGUUAGUAUUUAGAAA
## Result 0.0202

## Task Write down pre-steady-state target cleavage rate measured for item UCCUCCUACAGCUUGCUAUGUAUUUAGAAA
## Result 0.00902

## Task Write down pre-steady-state target cleavage rate measured for item UCCUGGAUGUCCUUCAUAGUAUUUAGUUA
## Result 0.0147

## Task Indicate the recorded pre-steady-state target cleavage rate value for this sequence: UCCUGGAUCAGCUUGCAUAGGAUUUAGUUA
## Result 0.0049

## Task Look up pre-steady-state target cleavage rate of UCCUGGAUCAGCUUGCAUAGUAUCUAGUUA and report it.
## Result 0.205

## Task Note pre-steady-state target cleavage rate for the sequence shown: UCCUGGAUCAGCUUCCAUAGUAUUUAGUAA
## Result 0.0353

## Task Please list pre-steady-state target cleavage rate recorded for the sequence UCCUGGAACAGCAUGCUUAGUAUUUAGUUA
## Result 0.217

## Task Report measured pre-steady-state target cleavage rate; entry is UCCUCCUACAGCUUGCAUAGUAUUGAGUUA
## Result 0.133

## Task Supply reported pre-steady-state target cleavage rate belonging to this sequence: UCCUGCUUGAGCUUGCAUAGUAUUUAGUAA
## Result 0.172

## Task Give the reported pre-steady-state target cleavage rate for this sequence. UCCUGGAUGUGCUUGCAAUGUAUUUAGUAA
## Result 0.0131

---

- Tested on: MILI (PIWIL2) piRISC loaded with piRNA #1 (26 nt);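 also: 1 nM active piRISC with 0.1 nM target library at 33 °C single turnover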
- METHOD DESCRIPTION: pre-steady-state target cleavage rate (min^-1); guide: piRNA #1 5'p-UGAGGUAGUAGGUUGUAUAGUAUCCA; MIWI and MILI are mouse PIWI proteins and EfPiwi is from a freshwater sponge; tags in brackets are library labels; higher = faster piRNA-guided slicing of the target
- PARTICULARS: auxiliary factor: 500 nM mouse GTSF1
READOUT: pre-steady-state target cleavage rate
In your answer, state the number alone without any accompanying words.

Some solved cases for reference:
GGAGACCUAUGAUUACAACCUACUAUCUCA : 0.00332
GGAGACCUUACUAUACACCUACUACCUCA : 0.00774
GGAGACCUAUGUAUACAACCUACUUGCUCA : 0.0104
GGAGAGGUUACUAUUCAACCUACUACCUCA : 0.164
GGAGACCUAUGAUUACAACCUACUAACCUCA : 0.0091
GGAGUGGAUACUAUACAACCUACUACCCA : 0.0544
GGAGACCUUACUAAACAACGUACUACCUCA : 0.015
GGAGACCUAUGUAUACAAGCUACAACCUCA : 0.0946

## Task Determine reported pre-steady-state target cleavage rate for GGAGUGGAUAUUAUACAACCUACUACCUCA ; test system: MILI (PIWIL2) piRISC loaded with piRNA #1 (26 nt).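 Also: 1 nM active piRISC with 0.1 nM target library at 33 °C single turnover.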
## Result 0.178

## Task # return pre-steady-state target cleavage rate for GGAGACCUAUGUAUACAAGCUACUACGUCA , test system: MILI (PIWIL2) piRISC loaded with piRNA #1 (26 nt);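 also: 1 nM active piRISC with 0.1 nM target library at 33 °C single turnover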
## Result 0.0451

## Task Specify pre-steady-state target cleavage rate for GGAGACCUAUGUAUACAACGUACAACCUCA , system MILI (PIWIL2) piRISC loaded with piRNA #1 (26 nt).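 Also: 1 nM active piRISC with 0.1 nM target library at 33 °C single turnover.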
## Result 0.00935

## Task Write down measured pre-steady-state target cleavage rate (MILI (PIWIL2) piRISC loaded with piRNA #1 (26 nt)) for this sequence. GGAGUGCAUACUAUUCAACCUACUACCUCA;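 also: 1 nM active piRISC with 0.1 nM target library at 33 °C single turnover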
## Result 0.182

## Task GET pre-steady-state target cleavage rate where system = MILI (PIWIL2) piRISC loaded with piRNA #1 (26 nt) and item = GGAGAGGCUACUAUACAACCUACUACCUCA;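 also: 1 nM active piRISC with 0.1 nM target library at 33 °C single turnover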
## Result 0.182

## Task Answer briefly: pre-steady-state target cleavage rate recorded on MILI (PIWIL2) piRISC loaded with piRNA #1 (26 nt) for GGAGACCUAACAAUACAACCUACUAGCUCA;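 also: 1 nM active piRISC with 0.1 nM target library at 33 °C single turnover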
## Result 0.0462

## Task Provide measured pre-steady-state target cleavage rate on MILI (PIWIL2) piRISC loaded with piRNA #1 (26 nt) for GGAGACCUAUGUAUACAACCUACUACCUA please.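 Also: 1 nM active piRISC with 0.1 nM target library at 33 °C single turnover.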
## Result 0.044

## Task Give reported pre-steady-state target cleavage rate for GGAGACCUUACUAUACAACCUACUACGACA (MILI (PIWIL2) piRISC loaded with piRNA #1 (26 nt));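 also: 1 nM active piRISC with 0.1 nM target library at 33 °C single turnover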
## Result 0.119
